All values here come from the supplement of paper PMC7840683.

# Test system: HepaRG
# experimentalProtocol: LDH release cytotoxicity, % of total lysis control; higher = more cytotoxic
# conditionSummary: 0.316228 µM; 48 h
measuredEndpoint: LDH release cytotoxicity (%)
Hi! Could you send only the number? It should be in %, unit omitted.

Give me measured LDH release cytotoxicity, please, for this compound: Cc1ccc(N)cc1N -1.49

Give me measured LDH release cytotoxicity, please, for this compound: NC(Cc1cc(I)c(Oc2ccc(O)c(I)c2)c(I)c1)C(=O)O (stereo not drawn) -4.73

Give me measured LDH release cytotoxicity, please, for this compound: CCC(C)C(=O)OC1CC(C)C=C2C=CC(C)C(CCC3CC(O)CC(=O)O3)C21 (stereo not drawn) -3.24

Give me measured LDH release cytotoxicity, please, for this compound: CC(COc1ccc(Oc2ccccc2)cc1)Oc1ccccn1 (stereo not drawn) -2.85

Give me measured LDH release cytotoxicity, please, for this compound: CCCC(CCC)C(=O)O -1.27

Give me measured LDH release cytotoxicity, please, for this compound: CCCCCCCCCCCCN1CCCC1=O -3

Give me measured LDH release cytotoxicity, please, for this compound: CCC[CH2][Sn]([Cl])([CH2]CCC)[CH2]CCC [Tributyltin chloride] -2.2

Give me measured LDH release cytotoxicity, please, for this compound: CCCCCCCCCC -2.41

Give me measured LDH release cytotoxicity, please, for this compound: ClC1=C(Cl)C2(Cl)C3C(Cl)C=CC3C1(Cl)C2(Cl)Cl (stereo not drawn) -2.78

Give me measured LDH release cytotoxicity, please, for this compound: OCCC(F)(F)C(F)(F)C(F)(F)C(F)(F)C(F)(F)C(F)(F)C(F)(F)C(F)(F)F -1.41

Give me measured LDH release cytotoxicity, please, for this compound: Nc1nc2nc[nH]c2c(=S)[nH]1 -2.87

Give me measured LDH release cytotoxicity, please, for this compound: C=CCCCCCCCCCCCC -3.94

Give me measured LDH release cytotoxicity, please, for this compound: Nc1c(Cl)c(Cl)nc(C(=O)O)c1Cl -3.74

Give me measured LDH release cytotoxicity, please, for this compound: CCCCCCCCCCC -2.37

Give me measured LDH release cytotoxicity, please, for this compound: COCC(C)N(C(=O)CCl)c1c(C)csc1C (stereo not drawn) -2.49

Give me measured LDH release cytotoxicity, please, for this compound: CSc1nc(NC(C)C)nc(NC(C)C)n1 -3.27

Give me measured LDH release cytotoxicity, please, for this compound: C=CC(=C)CCC=C(C)C -2.35

Give me measured LDH release cytotoxicity, please, for this compound: CC(=O)OCC=C(C)CCC=C(C)C [Geranyl acetate] -4.47

Give me measured LDH release cytotoxicity, please, for this compound: CC(C)CCCCCCOC(=O)c1ccc(C(=O)OCCCCCCC(C)C)c(C(=O)OCCCCCCC(C)C)c1 [Triisononyl trimellitate] -1.59

Give me measured LDH release cytotoxicity, please, for this compound: COC(=O)c1ccccc1C(=O)O [Monomethyl phthalate] -2.92

Give me measured LDH release cytotoxicity, please, for this compound: S=C(S)NCCNC(=S)S -2.09

Give me measured LDH release cytotoxicity, please, for this compound: CCOC(=O)CC(SP(=O)(OC)OC)C(=O)OCC (stereo not drawn) -2.33

Give me measured LDH release cytotoxicity, please, for this compound: CCC(C)c1ccccc1O (stereo not drawn) -2.25

---

# Tested on: HepaRG
# experimentalProtocol: LDH release cytotoxicity, % of total lysis control; higher = more cytotoxic
# conditionSummary: 10.35 µM; 48 h
measuredEndpoint: LDH release cytotoxicity (%)
Hi! Could you send only the number? It should be in %, unit omitted.

Observe how each entry below is paired with its result.
Oc1ccccc1-c1ccccc1 = 0.0213
O=c1[nH]sc2ccccc12 = -0.701
c1ccc(C[n+]2cccc3ccccc32)cc1 [1-Benzylquinolinium chloride] = -0.779

// next item, LDH release cytotoxicity requested
Give me measured LDH release cytotoxicity, please, for this compound: O=C(O)c1cccnc1 -0.596

---

Examples of compounds with documented LDH release cytotoxicity follow.
# System: HepaRG
# experimentalProtocol: LDH release cytotoxicity, % of total lysis control; higher = more cytotoxic
# conditionSummary: 0.3162278 µM; 48 h
Hi! Could you send only the number? It should be in %, unit omitted.

CCC1(c2ccccc2)C(=O)N=C(O)NC1=O (stereo not given) [Phenobarbital sodium] = -1.41
O=[N+]([O-])c1ccc(O)cc1 [Sodium 4-nitrophenolate] = -1.99
Oc1ccccc1 = -1.69
CC(C)(c1cc(Br)c(O)c(Br)c1)c1cc(Br)c(O)c(Br)c1 = -0.948
CCCc1ccccc1 = -0.202
COC(=O)c1ccccc1C(=O)OC [Dimethyl phthalate] = -1.58
CCCCCCCCOc1ccc(C(=O)c2ccccc2)c(O)c1 = -0.164
CC(C)(C)CC(C)(C)c1ccc(O)cc1 = -1.97

Give me measured LDH release cytotoxicity, please, for this compound: CC(C)(O)c1ccc(CNC(=O)c2cccnc2Oc2ccc3nonc3c2)cc1 -1.43

Give me measured LDH release cytotoxicity, please, for this compound: CC(=O)SC1CC2=CC(=O)CCC2(C)C2CCC3(C)C(CCC34CCC(=O)O4)C12 (stereo not given) -1.43

---

# Tested on: HepaRG
# experimentalProtocol: LDH release cytotoxicity, % of total lysis control; higher = more cytotoxic
# conditionSummary: 0.317809 µM; 48 h
Structures can show the parent of a compound that is named as a salt.
measuredEndpoint: LDH release cytotoxicity (%)
Hi! Could you send only the number? It should be in %, unit omitted.

Observe how each entry below is paired with its result.
CCC(C)(NC(=O)c1cc(Cl)c(C)c(Cl)c1)C(=O)CCl (configuration not stated) [Zoxamide] = -0.743
CNC(=O)Oc1cccc(N=CN(C)C)c1 [Formetanate hydrochloride] = -7.59
OCCO [Ethylene glycol] = -2.04
N#Cc1nn(-c2c(Cl)cc(C(F)(F)F)cc2Cl)c(N)c1S(=O)C(F)(F)F (configuration not stated) [Fipronil] = -1.37
CCCCOC(=O)C(C)Oc1ccc(Oc2ccc(C(F)(F)F)cn2)cc1 (configuration not stated) [Fluazifop-P-butyl] = -1.02
Cc1ccc(N)c(N)c1 [3,4-Diaminotoluene] = -1.27

Give me measured LDH release cytotoxicity, please, for this compound: C=CCOC(=O)C(C)(C)OC(=O)c1cc(-n2c(=O)cc(C(F)(F)F)n(C)c2=O)ccc1Cl [Butafenacil] -0.684

---

# Test system: HepaRG
# experimentalProtocol: LDH release cytotoxicity, % of total lysis control; higher = more cytotoxic
# conditionSummary: 0.3162278 µM; 48 h
Structures can show the parent of a compound that is named as a salt.
measuredEndpoint: LDH release cytotoxicity (%)
Hi! Could you send only the number? It should be in %, unit omitted.

Observe how each entry below is paired with its result.
O=C(O)c1c(Cl)ccc2cc(Cl)cnc12 = -0.616
CN(C)c1ccc(N=NS(=O)(=O)O)cc1 = -1.97
CN(C)c1ccc(C(=C2C=CC(=[N+](C)C)C=C2)c2ccc(N(C)C)cc2)cc1 = -1.86

# lookup: HepaRG LDH release cytotoxicity, key = CCC(C)(C)C(=O)OC1=C(c2ccc(Cl)cc2Cl)C(=O)OC12CCCCC2 -0.287

# lookup: HepaRG LDH release cytotoxicity, key = COC(=O)CCCCC(=O)OC [Dimethyl adipate] -1.36

# lookup: HepaRG LDH release cytotoxicity, key = COC(=O)C(C)Oc1ccc(Oc2ccc(Cl)cc2Cl)cc1 (racemic) [Methyl (RS)-2-[4-(2,4-dichlorophenoxy)phenoxy]propionate] -1.59

# lookup: HepaRG LDH release cytotoxicity, key = CCOC(=O)CC(O)(CC(=O)OCC)C(=O)OCC [Triethyl citrate] 0.176

# lookup: HepaRG LDH release cytotoxicity, key = CCC(C)c1cc([N+](=O)[O-])cc([N+](=O)[O-])c1O (centres undefined) -1.3

# lookup: HepaRG LDH release cytotoxicity, key = CNCc1cc(F)ccc1Oc1ccc(Cl)c(Cl)c1 -10.6

---

# Tested on: HepaRG
# experimentalProtocol: LDH release cytotoxicity, % of total lysis control; higher = more cytotoxic
# conditionSummary: 100 µM; 48 h
Examples of compounds with documented LDH release cytotoxicity follow.
Answer format reminder: number followed by unit.

Observe how each entry below is paired with its result.
CC(C)=CCC/C(C)=C\CO = 1.1%
[N-]=[N+]=[N-] [Sodium azide] = 7.38%
COC(=O)CCCCC(=O)OC [Dimethyl adipate] = 0.485%
CCOP(=O)(SC(C)CC)N1CCSC1=O (configuration not stated) [Fosthiazate] = 0.843%
CCOC(=O)NCCOc1ccc(Oc2ccccc2)cc1 = 16.6%
CC(=O)N1CCN(c2ccc(OCC3COC(Cn4ccnc4)(c4ccc(Cl)cc4Cl)O3)cc2)CC1 (configuration not stated) = 80.8%

Give me measured LDH release cytotoxicity, please, for this compound: O=C(NS(=O)(=O)C=Cc1ccccc1)c1ccc(F)cc1Cl 1.91%

Give me measured LDH release cytotoxicity, please, for this compound: c1ccc(C2CO2)cc1 (configuration not stated) [Styrene oxide] 0.415%

Give me measured LDH release cytotoxicity, please, for this compound: CCCCCCCCCCCCN1CCCC1=O 0.295%

Give me measured LDH release cytotoxicity, please, for this compound: CCOc1cccc(C2(N3CCN(c4ccccc4)CC3)CCC(C)CC2)c1 (configuration not stated) -1.12%

Give me measured LDH release cytotoxicity, please, for this compound: OCCN(CCO)CCO 1.04%

Give me measured LDH release cytotoxicity, please, for this compound: Cc1c2ccccc2c(C)c2c1ccc1ccccc12 -0.663%

Give me measured LDH release cytotoxicity, please, for this compound: COc1ccc(S(=O)(=O)N2C(=O)C(c3ccccc3OC)(N3CC(O)CC3C(=O)N(C)C)c3cc(Cl)ccc32)c(OC)c1 (configuration not stated) -0.056%

Give me measured LDH release cytotoxicity, please, for this compound: Clc1ccc(C(Cl)(Cl)Cl)cc1 [4-Chlorobenzotrichloride] 27.7%

Give me measured LDH release cytotoxicity, please, for this compound: CC12CCC3c4ccc(O)cc4CCC3C1CCC2=O (configuration not stated) 0.127%

Give me measured LDH release cytotoxicity, please, for this compound: C=CC(=C)CCC=C(C)C 0.279%

Give me measured LDH release cytotoxicity, please, for this compound: C=CCOC(Cn1ccnc1)c1ccc(Cl)cc1Cl (configuration not stated) 69.6%

Give me measured LDH release cytotoxicity, please, for this compound: Cc1cccc(C)c1O 0.122%

Give me measured LDH release cytotoxicity, please, for this compound: c1nc[nH]n1 2.04%

Give me measured LDH release cytotoxicity, please, for this compound: Cc1cccc(C)c1N 3.28%

Give me measured LDH release cytotoxicity, please, for this compound: COc1ccc(C=CS(=O)(=O)NC(=O)c2ccc(C)cc2Cl)cc1 1.21%

Give me measured LDH release cytotoxicity, please, for this compound: CCCCCCCCCCC 1.06%
